Examples of molecules with documented inhibition in vivo at 2 mg/kg follow.
# Test system: Rattus norvegicus
# Method: Percent inhibition of T-lymphocyte activation in BALF from actively sensitized Brown norway rats at 2 mg/kg
# Assay type: functional

| Smiles repr | inhibition in vivo at 2 mg/kg |
| --- | --- |
| O=C(O)c1ccc(-c2cc3cccnc3c(-c3cccc(Cl)c3)n2)cc1 | 23% |
| COc1ccc([C@]2(C#N)CC[C@@H](C(=O)O)CC2)cc1OC1CCCC1 | 40% |
| N#Cc1cccc(-c2nc(-c3ccc(C(=O)O)cc3)cc3cccnc23)c1 | 40% |
| O=C(O)c1ccc(-c2cc3cccnc3c(-c3cccc([N+](=O)[O-])c3)n2)cc1 | 59% |
